- Experimental Target: JAK3 (catalytic domain, His-tag) (Homo sapiens, UniProt P52333)
- Construct: All four purified enzymes contain only the catalytic domain; His (N); purchased Carna Biosciences, Inc; host or cells: baculovirus expression system
- Sequence (P52333 822-1111 limits assumed): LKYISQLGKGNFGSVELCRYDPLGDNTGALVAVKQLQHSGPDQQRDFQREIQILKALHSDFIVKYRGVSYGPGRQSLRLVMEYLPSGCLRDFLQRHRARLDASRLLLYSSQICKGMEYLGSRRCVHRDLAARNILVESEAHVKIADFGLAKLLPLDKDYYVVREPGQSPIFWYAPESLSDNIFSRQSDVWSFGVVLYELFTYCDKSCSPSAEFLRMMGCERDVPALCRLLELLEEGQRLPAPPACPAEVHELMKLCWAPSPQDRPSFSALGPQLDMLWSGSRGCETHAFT
- Assay Explanation: JAK kinase assay (HTRF, phosphorylation of TK substrate-biotin), JAK3
- Format: biochemical
- Cond: HTRF assay, ATP at Km (2 μM); read-out: JAK3 kinase inhibitory activity (EC50 indicator)
Listed below: EC50 values for each entry.

Example results:
COc1cnc2[nH]ccc2c1N1CCN(C(=O)c2cccc(C#N)c2)C2(CC2)C1 ... 100 to 500 nM
COc1cnc2[nH]ccc2c1N1CCN(C(=O)c2cc3ccccc3[nH]2)C2(CC2)C1 ... 100 to 500 nM
N#CCc1cccc(CC(=O)N2CCN(c3nc(N)nc4[nH]ccc34)CC23CC3)c1 ... 100 to 500 nM
Cc1c[nH]c2ncnc(N3CCN(C(=O)CCC#N)C4(CC4)C3)c12 ... > 500 nM
CCCS(=O)(=O)Nc1ccc(C(=O)N2CCN(c3ncnc4[nH]ccc34)CC23CC3)cc1 ... 100 to 500 nM

# get_value(readout='EC50', item= `NS(=O)(=O)c1cccc(CC(=O)N2CCN(c3ncnc4[nH]ccc34)CC23CC3)c1` ) < 100 nM

# get_value(readout='EC50', item= `COc1csc(C(=O)N2CCN(c3ncnc4[nH]ccc34)CC23CC3)c1` ) < 100 nM

# get_value(readout='EC50', item= `CCc1sc(C(=O)N2CCN(c3ncnc4[nH]ccc34)CC23CC3)cc1Br` ) 100 to 500 nM

---

- Experimental Target: JAK2 (catalytic domain, His-tag) (Homo sapiens)
- Construct: All four purified enzymes contain only the catalytic domain; His (N); purchased Carna Biosciences, Inc; host or cells: baculovirus expression system
- Sequence (O60674 849-1124 limits assumed): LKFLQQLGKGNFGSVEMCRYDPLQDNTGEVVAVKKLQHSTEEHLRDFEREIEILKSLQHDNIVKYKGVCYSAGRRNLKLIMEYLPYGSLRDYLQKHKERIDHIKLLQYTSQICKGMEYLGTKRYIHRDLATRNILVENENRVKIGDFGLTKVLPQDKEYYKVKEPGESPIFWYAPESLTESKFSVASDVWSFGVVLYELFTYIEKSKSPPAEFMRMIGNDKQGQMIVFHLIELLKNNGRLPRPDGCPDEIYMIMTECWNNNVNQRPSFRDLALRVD
- Assay Explanation: JAK kinase assay (HTRF, phosphorylation of TK substrate-biotin), JAK2
- Type: biochemical
- Cond: ATP at Km (4 μM); read-out: JAK2 kinase inhibitory activity (EC50 indicator)
pEC50: −log10 of the molar value.
Attribute Measured: pEC50

O=C(c1cccnc1)N1[C@@H]2CC[C@H]1CN(c1ncnc3[nH]ccc13)C2 [Example 57] ... 6.30 to 7.00
CS(=O)(=O)c1ccc(C(=O)N2C3CCC2CN(c2ncnc4[nH]ccc24)C3)cc1F [Example 131] ... > 7.00
N#Cc1ccc(C(=O)N2CCN(c3ncnc4[nH]ccc34)CC23CC3)s1 [Example 193] ... > 7.00

# get_value(readout='pEC50', item= Cc1ccc2[nH]c(C(=O)N3CCN(c4ncnc5[nH]ccc45)CC34CC4)cc2c1 [Example 184] ) > 7.00

# get_value(readout='pEC50', item= CC(=O)N1CCCC1C(=O)N1CCN(c2ncnc3[nH]ccc23)CC12CC2 (centres unmarked) [Example 50] ) < 6.30

# get_value(readout='pEC50', item= N#CC1CCN(C(=O)C2(C(=O)N3CCN(c4ncnc5[nH]ccc45)CC34CC4)CC2)C1 (centres unmarked) [Example 88] ) 6.30 to 7.00

# get_value(readout='pEC50', item= COC(=O)c1cc2c(N3CCN(C(=O)Cc4ccc(C#N)cc4)C4(CC4)C3)ncnc2[nH]1 [Example 124] ) < 6.30

# get_value(readout='pEC50', item= O=C(c1cc2c(s1)CCC2)N1CCN(c2ncnc3[nH]ccc23)CC12CC2 [Example 61] ) > 7.00

# get_value(readout='pEC50', item= Cn1cc(S(N)(=O)=O)cc1C(=O)N1C2CCC1CN(c1ncnc3[nH]ccc13)C2 [Example 142] ) > 7.00

# get_value(readout='pEC50', item= CC(=O)N1CCC(C(=O)N2CCN(c3ncnc4[nH]ccc34)CC23CC3)CC1 [Example 43] ) 6.30 to 7.00

# get_value(readout='pEC50', item= CN(CC#N)C(=O)C1(C(=O)N2CCN(c3ncnc4[nH]ccc34)CC23CC3)CC1 [Example 86] ) 6.30 to 7.00

# get_value(readout='pEC50', item= NS(=O)(=O)c1ccc(/C=C/C(=O)N2CCN(c3ncnc4[nH]ccc34)CC23CC3)cc1 [Example 197] ) > 7.00

---

- Experimental Target: JAK1 (aa 850-1154, catalytic domain, GST-tag) (Homo sapiens)
- Construct: JAK1 (aa 850-1154) and TYK2 (aa 871-1187) are expressed with an N-terminally fused GST-tag; GST (N); purchased Carna Biosciences, Inc; host or cells: baculovirus expression system
- Sequence (P23458 850-1154): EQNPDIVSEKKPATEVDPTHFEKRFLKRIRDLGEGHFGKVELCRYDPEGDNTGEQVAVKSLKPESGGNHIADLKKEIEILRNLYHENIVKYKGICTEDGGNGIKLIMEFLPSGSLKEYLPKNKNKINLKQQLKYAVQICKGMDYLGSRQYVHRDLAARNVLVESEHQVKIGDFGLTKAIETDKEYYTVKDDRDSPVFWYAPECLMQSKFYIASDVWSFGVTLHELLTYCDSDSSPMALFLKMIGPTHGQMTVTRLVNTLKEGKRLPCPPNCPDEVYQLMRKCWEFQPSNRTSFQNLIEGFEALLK
- Assay Explanation: JAK kinase assay (HTRF, phosphorylation of TK substrate-biotin), JAK1
- Assay type: biochemical
- Cond: ATP at Km (7 μM); read-out: JAK1 kinase inhibitory activity (EC50 indicator)
Listed below: EC50 values for each entry.

Example results:
NS(=O)(=O)c1ccc(CC(=O)N2CCN(c3ncnc4[nH]ccc34)CC23CC3)cc1 ... < 100 nM
O=C(O)C1(C(=O)N2CCN(c3ncnc4[nH]ccc34)CC23CC3)CC1 ... > 500 nM

# get_value(readout='EC50', item= `O=C(Cc1c[nH]c2ccccc12)N1[C@@H]2CC[C@@H]1CN(c1ncnc3[nH]ccc13)C2` ) 100 to 500 nM

# get_value(readout='EC50', item= `O=C(c1cccc2[nH]ccc12)N1CCN(c2ncnc3[nH]ccc23)CC12CC2` ) < 100 nM

# get_value(readout='EC50', item= `O=C(CCC(F)(F)F)N1[C@@H]2CC[C@H]1CN(c1ncnc3[nH]ccc13)C2` ) < 100 nM

# get_value(readout='EC50', item= `Cn1c(C(=O)N2CCN(c3ncnc4[nH]ccc34)CC23CC3)ccc1S(N)(=O)=O` ) < 100 nM

# get_value(readout='EC50', item= `CC(=O)NCC(=O)N1[C@@H]2CC[C@@H]1CN(c1ncnc3[nH]ccc13)C2` ) > 500 nM

# get_value(readout='EC50', item= `N#Cc1cccc(C(=O)N2CCN(c3ncnc4[nH]ccc34)CC23CC3)c1` ) < 100 nM

---

- Experimental Target: TYK2 (aa 871-1187, catalytic domain, GST-tag) (Homo sapiens, UniProt P29597)
- Construct: JAK1 (aa 850-1154) and TYK2 (aa 871-1187) are expressed with an N-terminally fused GST-tag; GST (N); purchased Carna Biosciences, Inc; host or cells: baculovirus expression system
- Sequence (P29597 871-1187): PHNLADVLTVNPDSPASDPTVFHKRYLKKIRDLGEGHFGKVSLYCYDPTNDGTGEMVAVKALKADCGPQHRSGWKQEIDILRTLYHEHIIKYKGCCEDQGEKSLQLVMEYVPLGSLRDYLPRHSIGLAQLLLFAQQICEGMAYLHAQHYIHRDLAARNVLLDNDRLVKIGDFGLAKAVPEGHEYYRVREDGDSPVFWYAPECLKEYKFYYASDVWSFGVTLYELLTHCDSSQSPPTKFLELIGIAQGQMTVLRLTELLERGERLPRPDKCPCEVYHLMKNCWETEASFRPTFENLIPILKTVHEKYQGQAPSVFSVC
- Assay Explanation: JAK kinase assay (HTRF, phosphorylation of TK substrate-biotin), TYK2
- Assay type: biochemical
- Cond: ATP at Km (13 μM); read-out: TYK2 kinase inhibitory activity (EC50 indicator)
Attribute Measured: EC50

Example results:
O=C(c1cc2cc(F)cc(F)c2[nH]1)N1C2CCC1CN(c1ncnc3[nH]ccc13)C2 ... > 0.5 µM
NS(=O)(=O)CCCC(=O)N1CCN(c2ncnc3[nH]ccc23)CC12CC2 ... > 0.5 µM
NS(=O)(=O)c1ccc(C(=O)C(=O)N2CCN(c3ncnc4[nH]ccc34)CC23CC3)cc1 ... < 0.1 µM
N#Cc1cccc(C(=O)N2[C@@H]3CC[C@@H]2CN(c2ncnc4[nH]ccc24)C3)c1 ... 0.1 to 0.5 µM
COC(=O)c1cc2c(N3CCN(C(=O)Cc4ccc(CC#N)cc4)C4(CC4)C3)ncnc2[nH]1 ... > 0.5 µM
CS(=O)(=O)c1ccc2[nH]c(C(=O)N3C4CCC3CN(c3ncnc5[nH]ccc35)C4)cc2c1 ... 0.1 to 0.5 µM
Cc1ccc(C(=O)N2CCN(c3ncnc4[nH]ccc34)CC23CC3)s1 ... < 0.1 µM

Please examine the following record next.
# get_value(readout='EC50', item= `Cc1c(C(=O)N2C3CCC2CN(c2ncnc4[nH]ccc24)C3)[nH]c2ccc(F)cc12` ) > 0.5 µM

---

- Experimental Target: TYK2 (aa 871-1187, catalytic domain, GST-tag) (Homo sapiens)
- Construct: JAK1 (aa 850-1154) and TYK2 (aa 871-1187) are expressed with an N-terminally fused GST-tag; GST (N); purchased Carna Biosciences, Inc; host or cells: baculovirus expression system
- Sequence (P29597 871-1187): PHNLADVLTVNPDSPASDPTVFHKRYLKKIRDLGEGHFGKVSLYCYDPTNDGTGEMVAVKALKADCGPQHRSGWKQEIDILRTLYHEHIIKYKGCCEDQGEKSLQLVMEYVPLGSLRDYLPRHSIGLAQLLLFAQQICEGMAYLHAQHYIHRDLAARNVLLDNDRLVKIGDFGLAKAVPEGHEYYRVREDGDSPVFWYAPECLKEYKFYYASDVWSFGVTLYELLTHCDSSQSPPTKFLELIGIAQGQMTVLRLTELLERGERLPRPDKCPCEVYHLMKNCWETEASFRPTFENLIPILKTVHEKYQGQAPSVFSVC
- Assay Explanation: JAK kinase assay (HTRF, phosphorylation of TK substrate-biotin), TYK2
- Type: biochemical
- Cond: ATP at Km (13 μM); read-out: TYK2 kinase inhibitory activity (EC50 indicator)
pEC50: −log10 of the molar value.
Listed below: pEC50 values for each entry.

Example results:
O=C(C1Cc2ccccc21)N1C2CCC1CN(c1ncnc3[nH]ccc13)C2 (centres unmarked) ... < 6.30
N#CCC(=O)N1CCN(c2ncnc3[nH]ccc23)CC12CC2 ... < 6.30
CC(=O)N1CCCC1C(=O)N1CCN(c2ncnc3[nH]ccc23)CC12CC2 (centres unmarked) ... < 6.30
N#Cc1ccc(CS(=O)(=O)N2CCN(c3ncnc4[nH]ccc34)CC23CC3)cc1 ... < 6.30
O=C(c1cccc(O)n1)N1CCN(c2ncnc3[nH]ccc23)CC12CC2 ... < 6.30
CS(=O)(=O)c1ccc(CC(=O)N2C3CCC2CN(c2ncnc4[nH]ccc24)C3)cc1 ... < 6.30

# get_value(readout='pEC50', item= `NS(=O)(=O)c1ccc(C(=O)N2CCN(c3ncnc4[nH]ccc34)CC23CC3)o1` ) > 7.00

# get_value(readout='pEC50', item= `N#CCc1ccc(C(=O)N2CCN(c3ncnc4[nH]ccc34)CC23CC3)cc1` ) 6.30 to 7.00

# get_value(readout='pEC50', item= `CC(=O)N1CCC(C(=O)N2CCN(c3ncnc4[nH]ccc34)CC23CC3)CC1` ) < 6.30

# get_value(readout='pEC50', item= CC1CN(C(=O)Cc2cccc(C#N)c2)C2(CC2)CN1c1ncnc2[nH]ccc12 (centres unmarked) ) < 6.30

# get_value(readout='pEC50', item= `O=C(C1CCS(=O)(=O)CC1)N1CCN(c2ncnc3[nH]ccc23)CC12CC2` ) < 6.30
